Biological target: T1, Cyno PD-L2-Fc (cynomolgus, UniProt A0A2K5U5Z4 20-220)
T1 construct: also called cynomolgus PD-L2; not shown: Fc
T1 sequence: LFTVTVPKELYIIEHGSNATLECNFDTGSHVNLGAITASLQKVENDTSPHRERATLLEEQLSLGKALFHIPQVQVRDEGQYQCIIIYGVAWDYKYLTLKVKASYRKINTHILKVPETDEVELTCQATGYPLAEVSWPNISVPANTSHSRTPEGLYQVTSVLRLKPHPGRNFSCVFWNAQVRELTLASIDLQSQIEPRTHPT
Test: ForteBio, IgG, avid
So I've got a bunch of binders here, and I need their pKd values.
Just the number, please; pKd means minus log10 of the concentration in mol/L.

Could you please provide reported pKd for BiPDL4-44 (antibody, V domains shown, Fourth generation, IgG) VH: QVQLVESGGGVIQPGRSLRLSCAASGFTFSAYLMHWVRQAPGKGLEWVAAIGYDGMNKYYADSVKGRFTISRDNSKNTLYLQMNSLRAEDTAVYYCARAGIEYSYAYTDYWGQGTLVTVSS VL: EIVLTQSPGTLSLSPGERATLSCRASHSVVSSYLAWYQQKPGQAPRLLIYGASSREDGIPDRFSGSGSGTDFTLTISRLEPEDFAVYYCVQFGWWPPRTFGGGTKVEIK ? Thanks! 9.38

Could you please provide reported pKd for BiPDL4-24 (antibody, V domains shown, Fourth generation, IgG) VH: QVQLVESGGGVVQPGRSLRLSCAASGFTFDEYGMHWVRQAPGKGLEWVAVIGYDGLNKYYADSVKGRFTISRDNSKNTLYLQMNSLRAEDTAVYYCARAGIEYSYAYTDYWGQGTLVTVSS VL: EIVLTQSPGTLSLSPGERATLSCRASNSVVSSYLAWYQQKPGQAPRLLIYGAASRANGIPDRFSGSGSGTDFTLTISRLEPEDFAVYYCVQFGWWPPRTFGGGTKVEIK ? Thanks! 9.34

Could you please provide reported pKd for BiPDL4-14 (antibody, V domains shown, Fourth generation, IgG) VH: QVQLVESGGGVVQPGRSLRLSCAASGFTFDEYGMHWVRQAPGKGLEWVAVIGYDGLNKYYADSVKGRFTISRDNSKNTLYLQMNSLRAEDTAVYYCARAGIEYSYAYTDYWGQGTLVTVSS VL: EIVLTQSPGTLSLSPGERATLSCRASQFVYSSDLAWYQQKPGQAPRLLIYGASTRKTGIPDRFSGSGSGTDFTLTISRLEPEDFAVYYCLQFGWWPPRTFGGGTKVEIK ? Thanks! 9.19

Could you please provide reported pKd for BiPDL4-34 (antibody, V domains shown, Fourth generation, IgG) VH: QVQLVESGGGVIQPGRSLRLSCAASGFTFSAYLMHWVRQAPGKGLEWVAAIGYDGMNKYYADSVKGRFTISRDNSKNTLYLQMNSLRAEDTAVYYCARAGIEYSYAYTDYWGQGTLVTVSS VL: EIVLTQSPGTLSLSPGERATLSCRASQFVYSSDLAWYQQKPGQAPRLLIYGASARAAGIPDRFSGSGSGTDFTLTISRLEPEDFAVYYCMQFGWWPPRTFGGGTKVEIK ? Thanks! 9.13
